Entries annotated with measured EC50
# tested target: Heat shock factor protein 1 (Mus musculus, UniProt P38532)
# Sequence (P38532 whole entry): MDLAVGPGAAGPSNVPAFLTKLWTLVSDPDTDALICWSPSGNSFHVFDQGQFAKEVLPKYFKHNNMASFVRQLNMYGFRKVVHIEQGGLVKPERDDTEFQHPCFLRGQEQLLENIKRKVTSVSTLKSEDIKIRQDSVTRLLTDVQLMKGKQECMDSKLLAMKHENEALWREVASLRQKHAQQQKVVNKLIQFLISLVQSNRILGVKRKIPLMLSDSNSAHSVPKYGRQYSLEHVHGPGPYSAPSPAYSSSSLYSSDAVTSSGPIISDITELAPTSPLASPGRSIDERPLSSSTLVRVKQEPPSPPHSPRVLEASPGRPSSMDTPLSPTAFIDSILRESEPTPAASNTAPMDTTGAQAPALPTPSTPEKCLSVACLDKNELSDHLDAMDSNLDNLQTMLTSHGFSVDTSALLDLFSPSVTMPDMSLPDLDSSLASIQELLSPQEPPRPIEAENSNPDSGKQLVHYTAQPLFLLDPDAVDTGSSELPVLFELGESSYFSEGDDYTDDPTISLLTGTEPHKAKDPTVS
# method summary: inhibition of MG132-induced HSE-luciferase signal, confirmation, cell-based, NIH3T3, luminescence, dose retest (AID 2382);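 also: NIH3T3 fibroblasts with HSF1-driven luciferase reporter stressed by proteasome inhibitor MG132; luminescence from HSF1-driven luciferase expression after 8 hours of MG132 stress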
# Format: functional
Active and inactive are the calls of the source. Rule as the data show it: actives have a measured EC50 and inactives only a lower limit.

Q: Given N#Cc1c(N)n(-c2ccccc2N)c2nc3ccccc3nc12 , state its recorded EC50.
Result: 11.2 µM (active)

Q: Next record, please: CCCCNC(=O)c1onc(CSc2cccc(Cl)c2)c1C(=O)O
Result: > 195 µM (not active)

Q: Lookup COc1ccccc1NC(=O)c1ccc(N2CC3CC(C2)c2cccc(=O)n2C3)c(NC(=O)c2ccncc2)c1 (stereo unspecified)
Result: > 195 µM (not active)

Q: Lookup CC(C)N1CCN(Cc2ccc3nsnc3c2)CC1CCO (stereo unspecified)
Result: > 195 µM (not active)

Q: Same read-out for O=C(O)c1cccc(NC(=S)NC(NC(=O)c2ccco2)C(Cl)(Cl)Cl)c1 (stereo unspecified) ?
Result: > 195 µM (not active)

Q: Try this compound too: Cc1cccc(C(=O)NC2CCN(C(=O)Nc3ccc(F)cc3)CC2)c1
Result: 32.7 µM (active)

Q: Please give the result for Cc1ccc(SCCCn2cncn2)cc1 too.
Result: > 195 µM (not active)

Q: Try this compound too: Cc1ccccc1OCCC(=O)OCC(=O)N1c2ccccc2NC(=O)C1(C)C
Result: > 195 µM (not active)

Q: Entry CC(OC(=O)CN1C(=O)NC2(CCCC2)C1=O)C(=O)c1ccccc1 (stereo unspecified) please
Result: > 195 µM (not active)

Q: Moving on to the next compound: Fc1ccccc1N=C(S)Nc1ccc(CN2CCOCC2)cc1
Result: 68.4 µM (active)

***
Q: Entry CC(=O)c1c(-c2ccc(Cl)cc2Cl)noc1C : reported EC50 = ?
Result: > 195 µM (not active)

Q: Another: CCOc1ccc(C(=O)C2=C(O)C(=O)N(CCCn3ccnc3)C2c2cccs2)cc1Cl (stereo unspecified)
Result: > 195 µM (not active)

Q: Item: COc1cc(OC)cc(C(=O)N[C@H](C(=O)OCC(=O)N2CCc3ccccc32)C(C)C)c1
Result: > 195 µM (not active)

Q: Can you handle CCCC[C@@H]1CNC(=O)C(=O)N1CCc1cccc2ccccc12 next?
Result: > 195 µM (not active)

Q: Also check CSc1nc(Cc2ccccc2)cc(=O)[nH]1
Result: > 195 µM (not active)

Q: One more compound: Nc1ccccc1SCC(=O)Nc1ccc2c(c1)OCCO2
Result: > 195 µM (not active)

Q: Entry COCCn1c(C)cc(C(=O)COC(=O)c2ccccc2Br)c1C please
Result: < 0.16 µM (active)

Q: // query: O=C(CNCCc1ccc(F)cc1)Nc1cc(F)ccc1F
Result: > 195 µM (not active)

Q: Query CC(C)(C)NC(=O)C1CC(=O)OC12CCOC(C)(C)C2 (stereo unspecified) next
Result: > 195 µM (not active)

Q: Another: CC1CCN(c2nc3ccc(C(=O)O)cc3s2)CC1
Result: 0.268 µM (active)

Q: Entry Cc1nn(Cc2ccccc2)c(C)c1NC(=O)c1noc2c1CCc1ccccc1-2 please
Result: > 195 µM (not active)
